Biological target: Tachykinin receptor NK3 (Homo sapiens)
Sequence (P29371 whole entry): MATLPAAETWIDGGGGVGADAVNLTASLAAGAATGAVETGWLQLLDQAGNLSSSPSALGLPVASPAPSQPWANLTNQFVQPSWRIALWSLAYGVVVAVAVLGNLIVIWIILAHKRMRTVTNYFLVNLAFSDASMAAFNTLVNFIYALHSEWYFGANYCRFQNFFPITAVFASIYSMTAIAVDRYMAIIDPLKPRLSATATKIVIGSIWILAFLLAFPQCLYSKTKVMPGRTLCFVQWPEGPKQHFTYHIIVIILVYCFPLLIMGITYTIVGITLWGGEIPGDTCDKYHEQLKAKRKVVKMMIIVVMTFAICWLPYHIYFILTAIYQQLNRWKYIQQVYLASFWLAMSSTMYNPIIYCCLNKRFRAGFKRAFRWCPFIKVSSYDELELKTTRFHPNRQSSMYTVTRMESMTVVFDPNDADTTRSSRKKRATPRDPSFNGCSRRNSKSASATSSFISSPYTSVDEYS
QUANTITY_NAME: IC50

QUERY: What does the record list as IC50 for COc1cc(C(F)(F)F)c(OC)cc1[C@@H]1CCCNC1 [(S)-11] ?
RESULT: > 10 µM

###

Test system: MDR1 (P-gp)
Test: MDR1-MDCK II permeability assay
Format: in vitro ADME
Details: dog, MDCK-MDR1, pH 7.4; Figure 6
QUANTITY_NAME: Papp B→A at […], 2 µM (×10⁻⁶ cm/s)
Give bare numbers, in ×10⁻⁶ cm/s.

QUERY: What does the record list as Papp B→A at […], 2 µM for COc1cc(C(F)(F)F)c(OC)cc1[C@@H]1CCCNC1 [(S)-11] ?
RESULT: 17.3
